# study system: Cytochrome P450 2C9 (Homo sapiens, UniProt P11712)
# Sequence (P11712 whole entry): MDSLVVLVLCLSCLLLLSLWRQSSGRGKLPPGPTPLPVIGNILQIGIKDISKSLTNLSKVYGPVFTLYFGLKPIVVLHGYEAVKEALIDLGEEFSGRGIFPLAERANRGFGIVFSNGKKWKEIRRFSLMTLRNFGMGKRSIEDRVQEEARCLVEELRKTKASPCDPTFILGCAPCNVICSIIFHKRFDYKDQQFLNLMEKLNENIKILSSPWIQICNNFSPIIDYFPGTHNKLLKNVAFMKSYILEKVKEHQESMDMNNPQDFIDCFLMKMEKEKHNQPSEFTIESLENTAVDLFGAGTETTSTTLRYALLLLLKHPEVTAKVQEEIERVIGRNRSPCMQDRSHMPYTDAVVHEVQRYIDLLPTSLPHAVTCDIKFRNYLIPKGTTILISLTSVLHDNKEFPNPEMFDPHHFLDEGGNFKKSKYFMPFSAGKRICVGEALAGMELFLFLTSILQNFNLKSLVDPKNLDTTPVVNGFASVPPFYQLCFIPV
parameter measured: IC50
Give the number first and the unit second.

See these solved cases before continuing.
compound	IC50
O=C(NCc1ccccc1OC(F)(F)F)N1CCC(Oc2ccncc2)CC1	800 nM
O=C(NCc1ccccc1OC(F)(F)F)N1CCC(c2ccncc2)C1 (centres undefined)	300 nM
O=C(NCCC(c1ccc(F)cc1)c1ccc(F)cc1)N1CCC(Oc2cnccn2)CC1	2900 nM

Next, consider the following compound.
Task item: Tell me IC50 of O=C(NCc1ccc(Cl)cc1Cl)N1CCC(Oc2ccncc2)CC1 when tested on Cytochrome P450 2C9 (Homo sapiens, UniProt P11712).
Reply: 100 nM
